Assay: yeast display, Sf9 membrane polyspecificity reagent, FACS + sequencing; frameworks hold sequencing errors
measurement label: polyreactivity (PSR sort gate)

Example cases with answers are listed next.
Task item: Complete the entry with polyreactivity (PSR sort gate) for QVQLVESGGGLVQAGGSLRLSCAASGLIFRLYAMGWYRQAPGKERELVAAISVSGAITYYADSVKGRFTISRDNAKNTVYLLMNSLKPEDTAVYYCNAQAVFRRDGYVYWDVDYWGQGTQVTVSS
Reply: low polyreactivity

Task item: Retrieve polyreactivity (PSR sort gate) measured for QVQLVESGGGLVQAGGSLRLSCAASGSIFTKYAMGWYRQAPGKERELVAAISSSGGSTYYADSVKGRFTISRDNAKNTVYLQMNSLKPEDTAVYYCAAEAVYYRSWRYYYWGQGTQVTVSS and print it.
Reply: high polyreactivity

Task item: State its polyreactivity (PSR sort gate): QVQLVESGAGLVQAGGSLRLSCAAYGLIFTYNAMGWYRQAPWKERKLVARITSGGNTNYADSVKGRFTISRDYAKNTVYLQMNSLKPEDTAVYYCATCLYWFTNRYGYWGQGTQVTVSS
Reply: low polyreactivity

Task item: Indicate the recorded polyreactivity (PSR sort gate) value for this sequence: QVQLVESGGGLVQAGGSLRLSCAASGSIFSRYTMGWYRQAPGKERELVAAISGSTTRTYYADSVKGRFTISRDNAKNTVYLQMNSLKPEDTAVYYCAATRGRGGRDDYWGQGTQVTVSS
Reply: high polyreactivity

With those in mind, consider the next sequence.
Task item: Please supply the value of reported polyreactivity (PSR sort gate) for the item QVQLVESGGGLVQAGGSLRLSCAASGITFPDYAMGWYRQAPGKERELVASISDSGGNTYYADSVKGRFTISRDNAKNTVYLQMNSLKPEDTAVYYCAVDSWYYYIVLYDYWGQGTQVTVSS
Reply: high polyreactivity
